// data source = paper PMC4844575

Molecular target: CXCR4 (Homo sapiens)
Construct: endogenous in cells; host or cells: Jurkat T-cell leukemia cells
Sequence (P61073 whole entry): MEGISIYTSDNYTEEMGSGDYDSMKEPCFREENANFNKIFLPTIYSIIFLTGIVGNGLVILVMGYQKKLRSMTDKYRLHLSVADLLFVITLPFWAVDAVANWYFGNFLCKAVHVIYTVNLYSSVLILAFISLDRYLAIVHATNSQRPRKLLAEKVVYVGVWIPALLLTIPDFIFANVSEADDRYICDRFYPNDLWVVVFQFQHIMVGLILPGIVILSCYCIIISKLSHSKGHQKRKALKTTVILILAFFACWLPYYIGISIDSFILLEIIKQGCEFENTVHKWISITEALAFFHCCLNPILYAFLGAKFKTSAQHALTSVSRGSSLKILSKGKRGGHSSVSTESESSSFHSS
Assay: competitive binding assay on Jurkat cells with [125I]FC131 as radioligand
Details: Jurkat T-cells, 4 × 10^5 cells per vial, app. 0.1 nM [125I]FC131, 120 min incubation, mean ± SD (n = 3)
Where a SMILES comes first, the peptide text is derived from it. Side-chain parts run from the residue outwards. [ ]: non-standard residue; d: D form. The star is where a group is joined. DFO(CSNHC6H4NHCS) = CC(=O)N(O)CCCCCNC(=O)CCC(=O)N(O)CCCCCNC(=O)CCC(=O)N(O)CCCCCNC(=S)Nc1ccc(NC(=S)*)cc1; DOTAGA = O=C(O)CN1CCN(CC(=O)O)CCN(C(CCC(=O)*)C(=O)O)CCN(CC(=O)O)CC1; DOTA = O=C(O)CN1CCN(CC(=O)O)CCN(CC(=O)*)CCN(CC(=O)O)CC1; 2Nal = N[C@@H](Cc1ccc2ccccc2c1)C(=O)O; dNMeOrn = CN[C@H](CCCN)C(=O)O; 4Amb = NCc1ccc(C(=O)O)cc1
measureName: IC50 (nM)
Provide only the numeric value, understood in nM.

CN1C(=O)[C@@H](Cc2ccc(O)cc2)NC(=O)CNC(=O)[C@H](Cc2ccc3ccccc3c2)NC(=O)[C@H](CCCNC(=N)N)NC(=O)[C@H]1CCCNC(=O)c1ccc(CNC(=O)CN2CCN(CC(=O)O)CCN(CC(=O)O)CCN(CC(=O)O)CC2)cc1 [[^natBi^3+]1] [metal not drawn] (cyclo([dY][dNMeOrn]([4Amb-DOTA])R[2Nal]G))	22.1

Query (compound): CN1C(=O)[C@@H](Cc2ccc(O)cc2)NC(=O)CNC(=O)[C@H](Cc2ccc3ccccc3c2)NC(=O)[C@H](CCCNC(=N)N)NC(=O)[C@H]1CCCNC(=O)c1ccc(CNC(=O)CCC(C(=O)O)N2CCN(CC(=O)O)CCN(CC(=O)O)CCN(CC(=O)O)CC2)cc1 (stereo partly drawn) [[^natLu^3+]2] [metal not drawn] (cyclo([2Nal]G[dY][dNMeOrn]([4Amb-DOTAGA])R)) ; field requested: IC50 188

Query (compound): CC(=O)N(O)CCCCCNC(=O)CCC(=O)N(O)CCCCCNC(=O)CCC(=O)N(O)CCCCCNC(=S)Nc1ccc(NC(=S)NCc2ccc(C(=O)NCCC[C@@H]3C(=O)N[C@@H](CCCNC(=N)N)C(=O)N[C@@H](Cc4ccc5ccccc5c4)C(=O)NCC(=O)N[C@H](Cc4ccc(O)cc4)C(=O)N3C)cc2)cc1 [[^natZr^4+]8, metal not drawn] (cyclo([2Nal]G[dY][dNMeOrn]([4Amb-DFO(CSNHC6H4NHCS)])R)) ; field requested: IC50 148

###

Target: CXCR4 (Homo sapiens)
Construct: endogenous in cells; host or cells: Jurkat T-cell leukemia cells
Assay: competitive binding assay on Jurkat cells with [125I]FC131 as radioligand
Settings: Jurkat T-cells, 4 × 10^5 cells per vial, app. 0.1 nM [125I]FC131, 120 min incubation, mean ± SD (n = 3)
Where a SMILES comes first, the peptide text is derived from it. Side-chain parts run from the residue outwards. [ ]: non-standard residue; d: D form. The star is where a group is joined. DOTAGA = O=C(O)CN1CCN(CC(=O)O)CCN(C(CCC(=O)*)C(=O)O)CCN(CC(=O)O)CC1; DOTA = O=C(O)CN1CCN(CC(=O)O)CCN(CC(=O)*)CCN(CC(=O)O)CC1; X2 = O=C(O)CN1CCN(CC(=O)O)CCN(Cc2ccc(NC(=S)*)cc2)CC1; NOTA = O=C(O)CN1CCN(CC(=O)O)CCN(CC(=O)*)CC1; 2Nal = N[C@@H](Cc1ccc2ccccc2c1)C(=O)O; dNMeOrn = CN[C@H](CCCN)C(=O)O; 4Amb = NCc1ccc(C(=O)O)cc1
measureName: pIC50
Remember the convention: pIC50 equals -log10 of concentration in molar.

CN1C(=O)[C@@H](Cc2ccc(O)cc2)NC(=O)CNC(=O)[C@H](Cc2ccc3ccccc3c2)NC(=O)[C@H](CCCNC(=N)N)NC(=O)[C@H]1CCCNC(=S)Nc1ccc(CN2CCN(CC(=O)O)CCN(CC(=O)O)CC2)cc1 [[^natF]AlF-5] (cyclo([2Nal]G[dY][dNMeOrn](X2)R))	6.48
CN1C(=O)[C@@H](Cc2ccc(O)cc2)NC(=O)CNC(=O)[C@H](Cc2ccc3ccccc3c2)NC(=O)[C@H](CCCNC(=N)N)NC(=O)[C@H]1CCCNC(=O)c1ccc(CNC(=O)CCC(C(=O)O)N2CCN(CC(=O)O)CCN(CC(=O)O)CCN(CC(=O)O)CC2)cc1 (stereo partly drawn) [[^natGa^3+]2] [metal not drawn] (cyclo([2Nal]G[dY][dNMeOrn]([4Amb-DOTAGA])R))	6.42
CN1C(=O)[C@@H](Cc2ccc(O)cc2)NC(=O)CNC(=O)[C@H](Cc2ccc3ccccc3c2)NC(=O)[C@H](CCCNC(=N)N)NC(=O)[C@H]1CCCNC(=O)c1ccc(CNC(=O)CN2CCN(CC(=O)O)CCN(CC(=O)O)CCN(CC(=O)O)CC2)cc1 [[^natLu^3+]1] [metal not drawn] (cyclo([dY][dNMeOrn]([4Amb-DOTA])R[2Nal]G))	7.39
CN1C(=O)[C@@H](Cc2ccc(O)cc2)NC(=O)CNC(=O)[C@H](Cc2ccc3ccccc3c2)NC(=O)[C@H](CCCNC(=N)N)NC(=O)[C@H]1CCCNC(=O)c1ccc(CNC(=O)CN2CCN(CC(=O)O)CCN(CC(=O)O)CC2)cc1 [[^natGa^3+]3] [metal not drawn] (cyclo([2Nal]G[dY][dNMeOrn]([4Amb-NOTA])R))	7.75
CN1C(=O)[C@@H](Cc2ccc(O)cc2)NC(=O)CNC(=O)[C@H](Cc2ccc3ccccc3c2)NC(=O)[C@H](CCCNC(=N)N)NC(=O)[C@H]1CCCNC(=O)c1ccc(CNC(=O)CN2CCN(CC(=O)O)CCN(CC(=O)O)CCN(CC(=O)O)CC2)cc1 [[^natCu^2+]1] [metal not drawn] (cyclo([dY][dNMeOrn]([4Amb-DOTA])R[2Nal]G))	6.88
CN1C(=O)[C@@H](Cc2ccc(O)cc2)NC(=O)CNC(=O)[C@H](Cc2ccc3ccccc3c2)NC(=O)[C@H](CCCNC(=N)N)NC(=O)[C@H]1CCCNC(=O)c1ccc(CNC(=O)CCC(C(=O)O)N2CCN(CC(=O)O)CCN(CC(=O)O)CCN(CC(=O)O)CC2)cc1 (stereo partly drawn) [[^natCu^2+]2] [metal not drawn] (cyclo([2Nal]G[dY][dNMeOrn]([4Amb-DOTAGA])R))	5.93

Shifting focus to the compound that follows.
Query (compound): CN1C(=O)[C@@H](Cc2ccc(O)cc2)NC(=O)CNC(=O)[C@H](Cc2ccc3ccccc3c2)NC(=O)[C@H](CCCNC(=N)N)NC(=O)[C@H]1CCCNC(=O)c1ccc(CNC(=O)CCC(C(=O)O)N2CCN(CC(=O)O)CCN(CC(=O)O)CCN(CC(=O)O)CC2)cc1 (stereo partly drawn) [[^natY^3+]2] [metal not drawn] (cyclo([2Nal]G[dY][dNMeOrn]([4Amb-DOTAGA])R)) ; field requested: pIC50 6.90
